test system: K12877-001-R-J1-PDC complex spheroid viability; assay: Anticancer human tumor K12877-001-R-J1-PDC patient-derived lung adenocarcinoma cell line growth inhibition [RAS]; details: second compound 0.000949 µM; first compound 0.00949 µM; active means viability on the fitted dose curve at most 10% of control; inactive means the rest
I would appreciate it if you answered using one of these outcomes: label 1 for active, label 0 for inactive

Give the logged outcome of this assay for the following molecule: CCc1c2c(nc3ccc(O)cc13)-c1cc3c(c(=O)n1C2)COC(=O)[C@]3(O)CC + CCn1c(-c2cccnc2C(C)OC)c2c3cc(ccc31)N1CCOC(CC(NC(=O)C(C(C)C)N(C)C(=O)C3(F)CCN(C(=O)C#CC(C)(C)N(C)C)CC3)C(=O)N3CCCC(N3)C(=O)OCC(C)(C)C2)C1 label 1

Please state the recorded outcome for this molecule: CCc1c2c(nc3ccc(O)cc13)-c1cc3c(c(=O)n1C2)COC(=O)[C@]3(O)CC + CCn1c(-c2cc(N3CCN(C)CC3)cnc2C(C)OC)c2c3cc(ccc31)-c1csc(n1)CC(NC(=O)C1CC1C)C(=O)N1CCCC(N1)C(=O)OCC(C)(C)C2 label 0

Recorded test outcome, item CC1(C)CCC(Nc2ncc(C(F)(F)F)c(-c3c[nH]c4c(P(C)(C)=O)c(C#N)ccc34)n2)CN1 (centres undefined) + CCn1c(-c2cc(N3CCN(C)CC3)cnc2C(C)OC)c2c3cc(ccc31)-c1csc(n1)CC(NC(=O)C1CC1C)C(=O)N1CCCC(N1)C(=O)OCC(C)(C)C2 label 0

What did this assay record as the result for CC1(C)CCC(Nc2ncc(C(F)(F)F)c(-c3c[nH]c4c(P(C)(C)=O)c(C#N)ccc34)n2)CN1 (centres undefined) + CCn1c(-c2cccnc2C(C)OC)c2c3cc(ccc31)N1CCOC(CC(NC(=O)C(C(C)C)N(C)C(=O)C3(F)CCN(C(=O)C#CC(C)(C)N(C)C)CC3)C(=O)N3CCCC(N3)C(=O)OCC(C)(C)C2)C1 ? label 0

====

Consider the following compounds; for each one, report its viability, T/C.
tested on: K12877-001-R-J1-PDC complex spheroid viability; assay: Anticancer human tumor K12877-001-R-J1-PDC cell line growth inhibition [RAS]; conditions: second compound 0.01 µM; first compound 0.01 µM; active compounds read low;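 further: tumour cells co-cultured with HUVEC and mesenchymal stem cells in spheroids; spheroids exposed to agents for one week before readout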

viability, T/C in this record for CC(C)n1nc(-c2ccc3oc(N)nc3c2)c2c(N)ncnc21 + C=CC(=O)N1CCN(c2nc(OCC3CCCN3C)nc3c(F)c(-c4nc(N)cc(C)c4C(F)(F)F)c(Cl)cc23)C(C)C1 : 79.3%

Short answer for CCN1CCN(Cc2ccc(Nc3ncc(F)c(-c4cc(F)c5nc(C)n(C(C)C)c5c4)n3)nc2)CC1 + C=CC(=O)N1CCN(c2nc(OCC3CCCN3C)nc3c(F)c(-c4nc(N)cc(C)c4C(F)(F)F)c(Cl)cc23)C(C)C1 : viability, T/C was 89.8%

viability, T/C reported for this compound O=C(c1ccc(F)c(F)c1Nc1ccc(I)cc1F)N1CC(O)([C@@H]2CCCCN2)C1 + C=CC(=O)N1CCN(c2nc(OCC3CCCN3C)nc3c(F)c(-c4nc(N)cc(C)c4C(F)(F)F)c(Cl)cc23)C(C)C1 : 95%

// viability, T/C lookup, compound = Nc1ccn(C2OC(CO)C(O)C2(F)F)c(=O)n1 (stereo not given) + C=CC(=O)N1CCN(c2nc(OCC3CCCN3C)nc3c(F)c(-c4nc(N)cc(C)c4C(F)(F)F)c(Cl)cc23)C(C)C1 , result: 83%

For this compound ( C=CC(=O)Nc1cc(Nc2nccc(-c3cn(C)c4ccccc34)n2)c(OC)cc1N(C)CCN(C)C + C=CC(=O)N1CCN(c2nc(OCC3CCCN3C)nc3c(F)c(-c4nc(N)cc(C)c4C(F)(F)F)c(Cl)cc23)C(C)C1 ), measured viability, T/C is 95%
